# ASSAYED_TARGET: T1, 006 PSMA Fab
# T1 construct: In the phage ELISA the PSMA Fab was biotinylated and captured on neutravidin coated plates; also called Anti-PSMA Fab
# ASSAY_REMARKS: clonal phage ELISA; biotinylated PSMA Fab captured on neutravidin plate, wells pre-incubated with PSMA antigen as competitor; bound phage detected with anti-M13 HRP
QUANTITY: Phage binding ELISA signal, Anti-PSMA Fab with PSMA antigen
Give your answer as a number; write no unit.

# annotated cases, reported Phage binding ELISA signal, Anti-PSMA Fab with PSMA antigen shown
Ask: Field request: Phage binding ELISA signal, Anti-PSMA Fab with PSMA antigen | item: GWVGCVPLWMCEGF [Phage-3949]
Result: 0.0698

Ask: Need Phage binding ELISA signal, Anti-PSMA Fab with PSMA antigen of EFRECRPPWMCQGL [Phage-3944] , thanks.
Result: 0.0789

Now for a further binder.
Ask: Requested field: Phage binding ELISA signal, Anti-PSMA Fab with PSMA antigen. Item: LVRMCQPPWMCDGF [Phage-3941]
Result: 0.0699
